Numbers sourced from patent US12698262B2.

testProtocol: Solubility test in buffers of different pHs (excess salt, HPLC determination of dissolved letermovir, final pH of mixture)
Assay type: physicochemical
condition: pH 9, aqueous buffer, thermodynamic from solid, buffer pH 9; stirred two hours at room temperature; Entries 1-3
outcomeMeasure: solubility at 2 h

**Query** Find the recorded solubility at 2 h belonging to COc1cccc(N2CCN(C3=Nc4c(F)cccc4[C@H](CC(=O)[O-])N3c3cc(C(F)(F)F)ccc3OC)CC2)c1.[K+] (mixture of isomers) [potassium salt mixed solvate] and report it.
**Result** > 100 mg/mL
